Protocol Notes: Human liver microsome stability
Measurement Setup: human, liver microsomes
So I've got a bunch of compounds here, and I need their CLint scaled values.
One number for each entry, in mL/min/kg.

In [3]: df
Out[3]:
                                   compound  quantitative_readout
0  Cc1cccn2c(CC(=O)NCCC(c3ccccc3)c3ccco3)cnc12 (stereo not drawn)                  1360

Quick note, CLint scaled for O=C(O)Cc1ccccc1Nc1c(Cl)cccc1Cl [Diclofenac, reference compound] landed at 236

====

Protocol Notes: Human liver microsome stability
Measurement Setup: human, liver microsomes
Record form. Attribute: microsomal CLint. Fill in for each entry.
Answers are plain numbers, in µL/min/mg.

>>> df
                                   compound      measure_name  units_of_measure  quantitative_readout
0  Cc1cccn2c(CC(=O)NCCC(c3ccccc3)c3ccco3)cnc12 (stereo not drawn)  microsomal CLint         µL/min/mg                  1520

Now for the compound whose microsomal CLint we want.
Reported microsomal CLint for O=C(O)Cc1ccccc1Nc1c(Cl)cccc1Cl [Diclofenac, reference compound] was 262

====

Test System: ACSS2 (Homo sapiens, UniProt Q9NR19)
Construct: His-tag (N); His-tag (C); made in house; host or cells: E. coli BL21 (DE3) RIL
Sequence (Q9NR19 whole entry): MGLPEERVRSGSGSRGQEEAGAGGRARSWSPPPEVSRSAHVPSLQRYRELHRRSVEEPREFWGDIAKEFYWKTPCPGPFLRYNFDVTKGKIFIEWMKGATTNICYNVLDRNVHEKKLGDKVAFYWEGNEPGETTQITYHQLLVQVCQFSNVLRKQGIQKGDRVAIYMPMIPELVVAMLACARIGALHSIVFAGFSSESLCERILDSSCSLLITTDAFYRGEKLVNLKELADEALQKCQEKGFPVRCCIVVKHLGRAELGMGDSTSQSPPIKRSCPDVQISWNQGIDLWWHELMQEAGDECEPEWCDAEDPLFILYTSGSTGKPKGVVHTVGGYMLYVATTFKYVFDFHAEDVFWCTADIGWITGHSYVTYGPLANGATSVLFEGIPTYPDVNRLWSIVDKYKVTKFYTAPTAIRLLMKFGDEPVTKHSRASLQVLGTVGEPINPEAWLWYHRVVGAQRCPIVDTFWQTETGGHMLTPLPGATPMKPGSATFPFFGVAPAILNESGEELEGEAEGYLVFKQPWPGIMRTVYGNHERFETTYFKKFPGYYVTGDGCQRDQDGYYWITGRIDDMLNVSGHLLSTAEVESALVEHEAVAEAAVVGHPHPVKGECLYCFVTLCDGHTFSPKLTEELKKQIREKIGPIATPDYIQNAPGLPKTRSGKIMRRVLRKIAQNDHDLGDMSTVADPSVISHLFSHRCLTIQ
Protocol Notes: SPR binding to immobilized ACSS2
Measurement Setup: 25°C, Langmuir isotherm equilibrium fit, mean, n=3, read-out: KD equilibrium
I'd be grateful if you could share measured pKd for these entries.
Numbers only, as −log10 of the molar value.

Examples from the recorded data:
>>> print(df.to_string())
                                   compound  measure_name  quantitative_readout
0  N[C@H](C(=O)N1CCCC(c2ccccc2)(c2ccccc2)C1)C1CC1           pKd                  3.93
1   CN1CCC(O)(C(=O)NCCc2ccccc2Oc2ccccc2)CC1           pKd                  4.40
2  Cc1cccn2c(CC(=O)NCCC(c3ccccc3)c3ccco3)cnc12 (stereo not shown)           pKd                  4.15

Here is another compound to look at.
So, COCCNC(=O)Nc1ccc2nc(-c3cccs3)c(-c3cccs3)nc2c1 [VY-3-249, reference compound] ? Its pKd was 4.27

====

Test System: ACSS2 (Homo sapiens)
Construct: His-tag (N); His-tag (C); made in house; host or cells: E. coli BL21 (DE3) RIL
Protocol Notes: SPR binding to immobilized ACSS2
Measurement Setup: global fit, mean, n=3, read-out: KD kinetic/global
Measure Name: Kd (µM)
Answers are plain numbers, in µM.

>>> df
                                   compound  quantitative_readout
0  N[C@H](C(=O)N1CCCC(c2ccccc2)(c2ccccc2)C1)C1CC1 [AD-8007]                   149

Could you tell me Kd for each of these compounds? They are listed below.
1. CN1CCC(O)(C(=O)NCCc2ccccc2Oc2ccccc2)CC1 [AD-7346]
2. COCCNC(=O)Nc1ccc2nc(-c3cccs3)c(-c3cccs3)nc2c1 [VY-3-249, reference compound]
3. Cc1cccn2c(CC(=O)NCCC(c3ccccc3)c3ccco3)cnc12 (stereo not shown) [AD-3766]

1: 49.4; 2: 66; 3: 77.6

====

Tested on: MDR1 (P-gp)
Protocol Notes: Bi-directional permeability across MDR1-MDCK cell monolayer (BBB assay)
Format: in vitro ADME, canine
Measurement Setup: dog; MDR1-MDCK I monolayer, B to A
Measure Name: Papp B→A (×10⁻⁶ cm/s)
Numbers only, in ×10⁻⁶ cm/s.

# N[C@H](C(=O)N1CCCC(c2ccccc2)(c2ccccc2)C1)C1CC1 with MDR1 (P-gp): Papp B→A is 25.2

====

For each of the compounds below, state its IC50.
Test System: ACSS2 (Homo sapiens, UniProt Q9NR19)
Numbers only, in nM.

For each of the items listed, what is its IC50?
1. N[C@H](C(=O)N1CCCC(c2ccccc2)(c2ccccc2)C1)C1CC1
2. COCCNC(=O)Nc1ccc2nc(-c3cccs3)c(-c3cccs3)nc2c1 [VY-3-249, reference compound]

[890, 1200]
